// abundance fitness lookup, one value per entry
B1: Pre-mRNA-processing factor 40 homolog B, residues 274 to 332; numbered along this chain, Q6NWY9 (parent)
chain: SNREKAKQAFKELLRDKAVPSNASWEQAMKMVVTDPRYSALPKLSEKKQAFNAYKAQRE

variants of: B1; test: abundance fitness (aPCA) (normalised: wild type 0, dead -1); higher = more abundant; growth selection in yeast, the domain comes from the species named; settings: Homo sapiens
Reply: number alone, nothing else.

# annotated cases, reported abundance fitness shown
In [3]: df
Out[3]:
   sequence_variant          parameter  reported_value
0              K30V  abundance fitness          -0.429
1               K7F  abundance fitness           0.104

Consider the variant shown here: `E12V` What is its recorded abundance fitness?
-0.705

// query abundance fitness value for entry `N52S`
-0.072

Which abundance fitness is listed for `E46R` ?
-1.04

Bench note: what abundance fitness did `M31V` show?
-0.326

Can you look up the measured abundance fitness of `L13G` for me?
-0.331
